List of melting point values.
MEASURED ATTRIBUTE: melting point

> print(dat)
                                   compound  measured.attribute     test.value
1    CCNC(=O)c1c(Cl)cccc1[Si](C)(C)c1ccccc1       melting point    89 to 91 °C
2  O=c1ccn(CC(O)CO)c(C(OC2CCCCO2)c2ccccc2)c1OCc1ccccc1 (stereo not given)       melting point  190 to 206 °C
3    CCOP(=O)(OCC)C(Nc1cnccn1)P(=O)(OCC)OCC       melting point    56 to 59 °C
4       CCOC(=O)c1ccc(N(C)Cc2ccc(Cl)cc2)cc1       melting point  106 to 107 °C
5  CN(C)Cc1nnc(CO)n1-c1ccc(Cl)cc1C(=O)c1ccccc1       melting point  138 to 141 °C

----------
# Lookup of reported melting point keyed by entry
MEASURED ATTRIBUTE: melting point

> print(dat)
                                   compound     test.value
1  CNc1ncc2c(n1)N(C1CCC(C(=O)O)CC1)C(=O)N(c1c(F)c(OC)cc(OC)c1F)C2 (centres undefined)         148 °C
2  COC(=O)Nc1c(C#N)cnn1-c1c(Cl)cc(SC(F)(F)F)cc1Cl         145 °C
3        CCOc1cc2c(cc1Cc1ccc3c(c1)OCO3)OCO2          44 °C
4  COC1CCN(S(=O)(=O)c2ccc([N+](=O)[O-])cc2C(F)(F)F)CC1  141 to 143 °C
5  N#CN=C(Nc1cccnc1)NC(NC(=O)c1ccc(Cl)cc1)C(Cl)(Cl)Cl (centres undefined)  126 to 128 °C
6  Cc1onc(-c2ccccc2)c1C(=O)NC1C(=O)N2C1SCC(C)(Cl)C2C(=O)O (centres undefined)         210 °C
7  COc1ccc(C(C)(C)O)cc1CN[C@H]1CN2CC[C@H]1[C@H](C(=O)O)[C@@H]2C(c1ccccc1)c1ccccc1  150 to 153 °C
8  CN(CCCN=C(NC#N)c1cc(C(C)(C)C)c(O)c(C(C)(C)C)c1)CCOc1ccc2c(c1)OCO2  129 to 130 °C
9     Cc1c(OCC(F)(F)F)ccnc1CSc1nc2ccccc2n1N  134 to 135 °C

----------
melting point: recorded values
MEASURED ATTRIBUTE: melting point

> print(dat)
                                    compound  measured.attribute     test.value
 1  COc1ncccc1C(=O)NCC1CCN(C[C@H]2COc3ccc(Cl)cc3O2)CC1       melting point    72 to 75 °C
 2                     CNC(=S)NCc1ccc(Br)nc1       melting point  117 to 118 °C
 3                  COc1ccc(-c2nccc(N)n2)cc1       melting point  102 to 104 °C
 4  COc1cc(O)ccc1-c1cnc2cnc(-c3ccc(O)cc3)nc2c1       melting point  207 to 208 °C
 5  Cc1cc(C)c(Nc2nc(C)ncc2S(=O)(=O)c2ccc(OCc3ccccc3)cc2)c(C)c1       melting point  166 to 168 °C
 6  CCCCCCCCCCCCCCCCCCC1CC(=O)N(c2ccc([N+](=O)[O-])cc2O)C1=O (configuration not stated)       melting point  115 to 120 °C
 7  CNC(=O)c1nn(-c2ccc(Cl)cc2)c(=O)c2c(N)scc12       melting point  192 to 194 °C
 8                  CSC(SC)=C(C#N)C(=O)N(C)C       melting point    45 to 46 °C
 9  C#CCN(c1ccc(C(=O)OC(C)(C)C)cc1)C1CCc2cc3nc(COC)[nH]c(=O)c3cc21 (racemic)       melting point  191 to 192 °C
10  CC(C)(C)OC(=O)N1CCC(O)(CS(=O)(=O)NC(c2ccccc2)c2ccccc2)CC1       melting point  121 to 123 °C
11  CC(=O)ON1C(C)(C)CC2(CC1(C)C)OCC(C)(C)CO2       melting point  109 to 111 °C
12   COC(=O)Cc1ccc(Oc2ccc(S(C)(=O)=O)cc2)cc1       melting point    93 to 98 °C
13  COc1ccc(SC2CC(=O)N2CC(=O)NCCCCCCc2ccc(Cl)cc2)cc1 (configuration not stated)       melting point    84 to 86 °C
14                 O=C(CO)c1ccc(C(F)(F)F)cc1       melting point  112 to 114 °C
15  COc1ccc2c(-c3ccccc3)nc(=NO)c(=O)n(C)c2c1       melting point  206 to 207 °C
16  c1ccc(CNCC2CCn3c(nc4ccccc43)S2)cc1 (configuration not stated)       melting point  155 to 156 °C
17  CO/N=C1\CCCC[C@@H]1NC(=O)c1cc(-c2ccc(Cl)cc2)c(O[C@@H](C)C(F)(F)F)cn1       melting point  123 to 125 °C
18       CCCCc1cccn2c(=O)c(-c3nnn[nH]3)cnc12       melting point  256 to 258 °C
19                NCCCCc1ccccc1C1=NNC(=O)CC1       melting point    78 to 80 °C
20  CCCC1=C(C(=O)OCC)C(c2ccnc3ccccc23)c2c[nH]nc2N1 (configuration not stated)       melting point         198 °C
21  O=C1CC(=O)C2C3C=CC(C3)C12 (configuration not stated)       melting point         183 °C
22  CC(N=C(NN)NN)C(=O)O (configuration not stated)       melting point  175 to 177 °C
23  CC(C)n1nc(-c2c(-c3ccccc3)nn3ccc(OCc4ccccc4)cc23)ccc1=O       melting point         168 °C
24       COc1cc([N+](=O)[O-])ccc1-c1cnc(C)s1       melting point  114 to 117 °C
25  CC1CCCC(C)N1S(=O)(=O)N[C@@H](Cc1ccc(Oc2nccc3cnccc23)cc1)C(=O)O (some centres not stated)       melting point         151 °C
26  CCOC(=O)c1cccn1CCN1CCC(=C2c3ccccc3CCn3ccnc32)CC1       melting point         158 °C
27                   CC(C)c1c(Cl)nc(Cl)nc1Cl       melting point        69.4 °C
28       CCOCCc1ccc(OCCNc2ncnc(C)c2Cl)c(C)c1       melting point    57 to 58 °C
29                Cc1ccnc(-c2ccccc2)c1C(=O)O       melting point  210 to 212 °C
30          CCOC(=O)c1cc(CC)sc1Nc1ccc(F)cc1N       melting point    82 to 84 °C
31            Cc1[nH]c(=O)c(C#N)cc1-c1ccccc1       melting point  280 to 290 °C
32  CC(=O)OC1C(CO)OC(n2cnc3c(N)ncnc32)C1O (configuration not stated)       melting point  195 to 201 °C
33  Cn1c(CON2C(=O)c3ccccc3C2=O)ncc(OCc2ccccc2)c1=O       melting point         170 °C
34  Cc1nc2ccc(C(=O)NS(=O)(=O)c3ccccc3)nc2n1Cc1ccc(CCc2ccccc2)cc1Cl       melting point  180 to 181 °C
35  CCOC(=O)C1=Cc2c(ccc(Cl)c2I)OC1C(F)(F)F (configuration not stated)       melting point  117 to 119 °C
36                      Cn1nc(O)c(C(F)F)c1Cl       melting point  122 to 123 °C
37  CCC(=O)NC[C@@H]1C[C@H]1c1cccn2nc(C)cc12 (relative stereo)       melting point    95 to 98 °C
38  NC(=O)CNC(=O)c1cccc(-c2cccc3oc(Cc4cc(F)cc(Cl)c4)cc23)c1       melting point  156 to 157 °C
39  CCOC(=O)Cn1c(-c2cc3c(cc2N)OCO3)nc2ccccc21       melting point  284 to 287 °C
40                CCC(N)(P(=O)(O)O)P(=O)(O)O       melting point         282 °C
41  O=C(NCCN1CCCC1)c1ccc(=O)n(Cc2ccc(-c3ccccc3)cc2)c1       melting point  142 to 152 °C
42  CC(=NO)c1ccc2c(c1)C(c1ccccc1F)=NC(C)C(=O)N2C (configuration not stated)       melting point  101 to 103 °C

----------
Form field: melting point (one value per entry).
MEASURED ATTRIBUTE: melting point

> print(dat)
                                   compound  measured.attribute     test.value
1      CC(=O)c1cc(Cl)ccc1NS(=O)(=O)C(F)(F)F       melting point    36 to 38 °C
2  CC1(CNc2ccccc2)SC2C(NC(=O)Cc3ccccc3)C(=O)N2C1C(=O)O (stereo not given)       melting point         120 °C
3            COC(=O)NC(=O)Nc1nc2c(C)cccc2s1       melting point  272 to 280 °C
4  CC(=O)Oc1cc(C(=O)O)cc([N+](=O)[O-])c1OC(C)=O       melting point  126 to 127 °C
5  CC(C)c1cn2ccccc2c1S(=O)(=O)c1ccc(OCCCN2CCC(c3ccccc3)CC2)cc1       melting point    79 to 80 °C
